From: patent US20210163485A1

targetDesc: full-length human S1P1 (Homo sapiens)
Construct: CHO-K1 Gαqi5 cells expression full-length human S1P1
Sequence (P21453 whole entry): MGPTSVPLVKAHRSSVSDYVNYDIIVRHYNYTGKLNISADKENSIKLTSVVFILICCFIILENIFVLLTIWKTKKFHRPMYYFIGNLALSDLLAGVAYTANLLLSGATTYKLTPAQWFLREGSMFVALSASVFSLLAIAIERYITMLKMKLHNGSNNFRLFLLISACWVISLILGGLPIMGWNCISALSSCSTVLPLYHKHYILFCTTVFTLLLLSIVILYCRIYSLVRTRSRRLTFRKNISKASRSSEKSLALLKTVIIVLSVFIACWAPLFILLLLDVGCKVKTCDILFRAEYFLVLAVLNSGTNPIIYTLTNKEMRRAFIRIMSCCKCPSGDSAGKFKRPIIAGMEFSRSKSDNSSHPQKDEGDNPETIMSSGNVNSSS
assayNotes: GTPγS binding assay (scintillation proximity assay) with S1P1 membranes
condition: S1P1 membrane from CHO-K1 Gαqi5 cells; GTPγ35S SPA, 60 minutes incubation
Experimental: S1P1 membrane is prepared from CHO-K1 Gαqi5 cells expression full-length human S1P1. Scintillation proximity assay (SPA) is performed by incubating membranes, GTPγ^35S, and compounds at various concentrations for 60 minutes. Wheat germ agglutinin-coated SPA beads are added and incubated for 60 minutes before centrifugation and scintillation counting.
pEC50: −log10 of the molar value.
Measured pEC50 accompanies every entry in the list below.
observable: pEC50

                                   compound  observable  valuemeasured
0  OC[C@H](O)COc1cc(Cl)c(-c2noc(-c3cn4nc(C(F)(F)F)ccc4n3)n2)cc1Cl       pEC50   6.00 to 7.00
1  CC(CO)Oc1cc(Cl)c(-c2noc(-c3cn4cc(C(F)(F)F)ncc4n3)n2)cc1Cl (stereo not shown)       pEC50         > 7.00
2  N[C@@H](CO)COc1cc(Cl)c(-c2noc(-c3cn4cc(C(F)(F)F)ncc4n3)n2)cc1Cl       pEC50         > 7.00
3  N[C@@H](CO)COc1cc(Cl)c(-c2noc(-c3cn4nc(C(F)(F)F)ccc4n3)n2)cc1Cl       pEC50         > 7.00
4  OC[C@H](O)COc1cc(Cl)c(-c2noc(-c3cn4cc(C(F)(F)F)ncc4n3)n2)cc1Cl       pEC50         > 7.00
5  OC[C@@H](O)COc1cc(Cl)c(-c2noc(-c3cn4cc(C(F)(F)F)ncc4n3)n2)cc1Cl       pEC50         > 7.00
6  CC(CO)Oc1cc(Cl)c(-c2noc(-c3cn4nc(C(F)(F)F)ccc4n3)n2)cc1Cl (stereo not shown)       pEC50   6.00 to 7.00
